These data points were gathered from patent US8791132B2.

Give inhibition at 0.1 µM for every item shown.
Target: rat adrenergic α1B receptor (Rattus norvegicus, UniProt P15823)
Construct: rat adrenergic α1B receptor obtained from Wistar Rat liver; from tissue; host or cells: Wistar rat liver
Sequence (P15823 1-515): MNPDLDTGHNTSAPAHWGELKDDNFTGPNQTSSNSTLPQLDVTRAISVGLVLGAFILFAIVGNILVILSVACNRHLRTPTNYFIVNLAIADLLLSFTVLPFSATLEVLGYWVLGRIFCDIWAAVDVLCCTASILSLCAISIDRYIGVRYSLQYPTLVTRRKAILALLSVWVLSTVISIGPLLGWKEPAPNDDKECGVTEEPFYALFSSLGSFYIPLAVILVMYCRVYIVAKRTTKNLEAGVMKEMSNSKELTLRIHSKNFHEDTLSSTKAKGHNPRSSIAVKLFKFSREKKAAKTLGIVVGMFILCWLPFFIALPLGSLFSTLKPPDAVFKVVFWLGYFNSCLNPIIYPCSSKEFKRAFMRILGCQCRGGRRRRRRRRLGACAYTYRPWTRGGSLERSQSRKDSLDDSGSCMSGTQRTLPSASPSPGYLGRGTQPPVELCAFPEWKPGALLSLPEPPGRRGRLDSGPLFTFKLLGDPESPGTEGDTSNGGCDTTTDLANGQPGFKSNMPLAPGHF
Experiment: Radioligand binding, adrenergic α1B ([3H]Prazosin)
Conditions: read-out: Percentage inhibition of ligand binding, Adrenergic α1B (0.1 μM), compound at 0.1 μM; [3H]Prazosin; repeat datapoints each shown
Express it in %; write the number only.

Qu. What does the data say about its inhibition at 0.1 µM? Entry: C/C(=C/n1c2c(c3cc(C)ccc31)CCN(C)CC2)c1ccccc1F [compound 230]
Ans. 94

Qu. What does the data say about its inhibition at 0.1 µM? Entry: C/C(=C\n1c2c(c3cc(C)cc(C)c31)CN(C)CC2)c1ccc(C)nc1 [compound 188]
Ans. 60

Qu. What does the data say about its inhibition at 0.1 µM? Entry: CN1CCc2c(c3ccccc3n2CC(C)(O)c2cccnc2)C1 (single isomer, unassigned) [173a]
Ans. 5

Qu. What does the data say about its inhibition at 0.1 µM? Entry: Cc1ccc2c(c1CO)c1c(n2CC(C)(O)c2cccnc2)CCN(C)C1 (stereo not drawn) [II-153]
Ans. 2

Qu. What does the data say about its inhibition at 0.1 µM? Entry: Cc1ccc2c(c1)c1c(n2C2=C(c3ccc4c(ccn4C)c3)CCC2)CCN(C)C1 [compound 191]
Ans. 10

Qu. What does the data say about its inhibition at 0.1 µM? Entry: Cc1ccc2c(c1)c1c(n2CCc2ccc(C)nc2)CCN2CCCC12 (single isomer, unassigned) [197b]
Ans. 96

Qu. What does the data say about its inhibition at 0.1 µM? Entry: Cc1ccc(CCn2c3c(c4c(Cl)ccc(Cl)c42)CCN(C)CC3)cn1 [II-246]
Ans. -2

Qu. What does the data say about its inhibition at 0.1 µM? Entry: C/C(=C\n1c2c(c3cc(C)ccc31)CN(C)CC2)c1ccncn1 [compound 101]
Ans. 61

Qu. What does the data say about its inhibition at 0.1 µM? Entry: CNC(=O)c1cccc(/C(C)=C/n2c3c(c4cc(C)ccc42)CN(C)CC3)c1 [compound 107]
Ans. 56

Qu. What does the data say about its inhibition at 0.1 µM? Entry: COc1ccc(C(C)(O)Cn2c3c(c4cc(Cl)ccc42)C2CCC(C3)N2C)cc1F (stereo not drawn) [II-164]
Ans. 12

Qu. What does the data say about its inhibition at 0.1 µM? Entry: Cc1ccc2c(c1)c1c(n2CC(CC(N)=O)c2ccncc2)CCN(C)C1 (stereo not drawn) [II-229]
Ans. 3

Qu. What does the data say about its inhibition at 0.1 µM? Entry: C/C(=C\n1c2c(c3cc(C)cnc31)CN(C)CC2)c1ccncc1 [compound 124]
Ans. 19

Qu. What does the data say about its inhibition at 0.1 µM? Entry: CCC1c2c(c3cc(Cl)ccc3n2CC(C)(O)c2ccc(F)cc2)CCN1C (stereo not drawn) [II-161]
Ans. 7

Qu. What does the data say about its inhibition at 0.1 µM? Entry: C/C(=C\n1c2c(c3cc(C)ccc31)CCN(C)CC2)c1ccc(Cl)cc1Cl [compound 227]
Ans. 21

Qu. What does the data say about its inhibition at 0.1 µM? Entry: Cc1ccc2c(c1)c1c(n2CC(C)(O)c2ccc(C(=O)O)nc2)CCN(C)C1 (stereo not drawn) [compound 169]
Ans. 2

Qu. What does the data say about its inhibition at 0.1 µM? Entry: Cc1ccc2c(c1)c1c(n2CC(C)(O)c2ccc(C)nc2)CCN2CCCC12 (single isomer, unassigned) [II-128b]
Ans. 84

Qu. What does the data say about its inhibition at 0.1 µM? Entry: Cc1ccc2c(c1)c1c(n2CC(C)(O)c2cccnc2)CNCC1 (stereo not drawn) [128b]
Ans. 45

Qu. What does the data say about its inhibition at 0.1 µM? Entry: Cc1ccc2c(c1)c1c(n2CC(C)(O)c2cncc(C(=O)O)c2)CCN(C)C1 (stereo not drawn) [II-141]
Ans. 7
